// each record: one item and its Ki for JAK2 (Homo sapiens)
Where a name gives a salt, the structure may show the parent alone.

# compound, experimental target, Ki
measured = [
    ("O=C(NCC(F)(F)F)[C@@H]1CCCN1c1nc(-c2c[nH]c3ncncc23)ncc1F", "JAK2 (Homo sapiens)", "> 5000 nM"),
    ("C[C@H](Nc1nc(-c2c[nH]c3ncncc23)cc(N2CCOCC2)n1)C(=O)NCC(F)(F)F", "JAK2 (Homo sapiens)", "> 5000 nM"),
    ("CC(C)[C@](C)(Nc1nc(-c2c[nH]c3ncncc23)ncc1F)C(=O)NCC(F)(F)F", "JAK2 (Homo sapiens)", "500 to 5000 nM"),
    ("C1=C(c2cccc(-c3c[nH]c4ncncc34)n2)CCNC1 [Compound 29, hydrochloride]", "JAK2 (Homo sapiens)", "500 to 5000 nM"),
    ("CC(C)C(C(=O)NCC(F)(F)F)N(C)c1nc(-c2c[nH]c3ncncc23)ncc1F (centres unmarked)", "JAK2 (Homo sapiens)", "< 500 nM"),
    ("CC[C@@H](Nc1ccnc(-c2c[nH]c3ncncc23)n1)C(=O)NCC(F)(F)F", "JAK2 (Homo sapiens)", "< 500 nM"),
    ("C[C@@H](Nc1ccnc(-c2c[nH]c3ncncc23)n1)c1ccc(F)cc1", "JAK2 (Homo sapiens)", "< 500 nM"),
    ("C[C@@H](Nc1ccnc(-c2c[nH]c3ncncc23)n1)C(=O)N(C)CC(F)(F)F", "JAK2 (Homo sapiens)", "500 to 5000 nM"),
]

Reference source: patent US8580802B2
